B1: TPR 5TU (parent)
chain: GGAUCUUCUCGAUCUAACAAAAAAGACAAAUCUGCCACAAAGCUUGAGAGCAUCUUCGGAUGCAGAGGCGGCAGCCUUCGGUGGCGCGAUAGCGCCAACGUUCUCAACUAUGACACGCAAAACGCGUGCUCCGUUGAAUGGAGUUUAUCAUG

Variants of: B1
Test: polymerase ribozyme fitness, log enrichment relative to wild type (log ratio); higher = more active; in vitro selection for triplet polymerase activity
Variants at the floor of the assay were thinned out.
The label depends only on polymerase ribozyme fitness (log ratio): yes if it is at least -3, no if it is smaller.

A66G C69A G84U A138U	no
C51A U82G C96U G143C	no
A12U A22G A29C G42U C87U C93A	no
C38U C72U C95G	yes

[Q] Dear colleague, could you confirm whether A41U A91U G140A has polymerase ribozyme fitness (log ratio) at or above -3?
[A] no

[Q] Form field: polymerase ribozyme fitness (log ratio) at least -3? Entry: U139C U144A
[A] no
